Molecular target: NanoLuc:EGFR fusion on cells (UniProt P00533 25-1210)
Test: competition with CBT-labeled EGF
Endpoint Label: Ki (nM)
Return type: number; implicit unit nM.

Q: Quick check: Ki of unlabeled EGF purified in the same manner (with CDN N-terminal appendage) (ligand, not fully specified) CDNNSDSECPLSHDGYCLHDGVCMYIEALDKYACNCVVGYIGERCQYRDLKWWELR ?
Ans: 0.15

Cited source for all entries: paper PMC6504924
